- MEASUREMENT TARGET: Phenylethanolamine N-methyltransferase (Homo sapiens)
- PROTOCOL NOTES: Confirmatory Screen for Target Class Profiling of Small Molecule Inhibitors of Methyltransferases (AID 1745852)
- CONDITION SET: MTase-Glo luminescence, SAH detection, recombinant enzyme; measured here: PNMT max response; stronger effect = lower value
List of activity values.
MEASURE NAME: activity (%)

# COMPOUND, MEASUREMENT TARGET, UOM, REPORTED RESULT
records = [
    ("O=C(O[C@@H]1O[C@H](CO)[C@@H](O)[C@H](O)[C@H]1O)c1c(O)cc(O)cc1/C=C/c1ccccc1", "Phenylethanolamine N-methyltransferase (Homo sapiens)", "%", -9.3),
    ("CC1(CO)CC[C@]2(C(=O)O[C@@H]3O[C@H](CO)[C@@H](O)[C@H](O)[C@H]3O)CC[C@]3(C)C(=CCC4[C@@]5(C)C[C@H](O)[C@H](O[C@@H]6OC[C@@H](O)[C@H](O)[C@H]6O)[C@@](C)(CO)C5CC[C@]43C)C2C1 (stereo partly drawn)", "Phenylethanolamine N-methyltransferase (Homo sapiens)", "%", 2.01),
    ("CC1(C)CC[C@]2(C(=O)O[C@@H]3O[C@H](CO)[C@@H](O)[C@H](O)[C@H]3O)CC[C@]3(C)C(=CCC4[C@@]5(C)C[C@@H](O)[C@H](O)C(CO)(CO)C5CC[C@]43C)C2[C@@H]1O (stereo partly drawn)", "Phenylethanolamine N-methyltransferase (Homo sapiens)", "%", 4.05),
    ("COC(=O)C1=COC(OC2OC(CO)C(O)C(O)C2O)C2C1CC(OC(=O)C(O)CC(=O)O)C2C (stereo not drawn)", "Phenylethanolamine N-methyltransferase (Homo sapiens)", "%", 1.07),
    ("C[C@@H]1O[C@@H](O[C@H]2[C@H](OC(=O)C34CCC(C)(C)CC3C3=CCC5C6(C)CC(O)C(O[C@@H]7O[C@H](CO)[C@@H](O)[C@H](O)[C@H]7O)C(C)(C(=O)O)C6CCC5(C)C3(CO)CC4)O[C@H](C)[C@H](O)[C@@H]2O)[C@H](O)[C@H](O)[C@H]1O[C@@H]1OC[C@@H](O)[C@H](O)[C@H]1O (stereo partly drawn)", "Phenylethanolamine N-methyltransferase (Homo sapiens)", "%", -2.81),
    ("COc1cc(/C=C/c2cc(O)cc(O[C@@H]3O[C@H](CO)[C@@H](O)[C@H](O)[C@H]3O)c2)ccc1O", "Phenylethanolamine N-methyltransferase (Homo sapiens)", "%", 1.65),
    ("COc1cc(C(O)C(CO)Oc2ccc(CCCO[C@@H]3O[C@@H](C)[C@H](O)[C@@H](O)[C@H]3O)cc2OC)ccc1O (stereo partly drawn)", "Phenylethanolamine N-methyltransferase (Homo sapiens)", "%", -4.24),
    ("CC1=CC(=O)CC(C)(C)C1(O)CCC(C)O (stereo not drawn)", "Phenylethanolamine N-methyltransferase (Homo sapiens)", "%", 4.65),
    ("Cc1ccc2c(c1)C=Cc1cc(C)ccc1C2c1cn(Cc2ccc(C(=O)Nc3nn[nH]n3)o2)c(=O)[nH]c1=S", "Phenylethanolamine N-methyltransferase (Homo sapiens)", "%", -2.77),
    ("CC1CC(=O)C2=C(O1)OC1(C)CCC3C(C)(C)C=CC(=O)C3(C)C1C2 (stereo not drawn)", "Phenylethanolamine N-methyltransferase (Homo sapiens)", "%", -3),
    ("CC1=CC(=O)C2C(C)(C)CCCC2(C)C12CCC1(COC(=O)C1)O2 (stereo not drawn)", "Phenylethanolamine N-methyltransferase (Homo sapiens)", "%", 3.04),
    ("C/C=C(\\C)C(=O)O[C@H]1[C@@H](O[C@]2(COC(=O)CC(C)C)O[C@H](COC(=O)C(C)C)[C@@H](OC(C)=O)[C@@H]2O)O[C@H](COC(C)=O)[C@@H](O)[C@@H]1O", "Phenylethanolamine N-methyltransferase (Homo sapiens)", "%", -1.49),
    ("Cc1[nH]cnc1C1CCN(c2nc3cccc4c3n2CCC4=O)CC1", "Phenylethanolamine N-methyltransferase (Homo sapiens)", "%", 1.15),
]
